The values you see were collected from patent US20110230367A1.

Provide the reported Kd of each item.
- assay.target: IRES (hairpin RNA)
- assay: Dissociation constant by competitive fluorescence anisotropy with rhodamine-rev peptide probe
- Format: binding
- test.settings: Table 6
Write the number in nM without appending the unit.

Entry WKKLWKLLKKLLKLAG [Peptide 2a, Ac-WKKLWKLLKKLLKLAG, 12] under IRES (hairpin RNA) had Kd of 0.9

Entry LKKLLKLLKKWWKLAG [Peptide 2h, Ac-LKKLLKLLKKWWKLAG, 19] under IRES (hairpin RNA) had Kd of 1.7

Entry WKKLLKLLKKLLKWAG [Peptide 2e, Ac-WKKLLKLLKKLLKWAG, 16] under IRES (hairpin RNA) had Kd of 0.76

Entry LKKLWKLLKKLLKWAG [Peptide 2f, Ac-LKKLWKLLKKLLKWAG, 17] under IRES (hairpin RNA) had Kd of 3.8

Entry WKKLLKLLKKWLKLAG [Peptide 2c, Ac-WKKLLKLLKKWLKLAG, 14] under IRES (hairpin RNA) had Kd of 0.46

Entry LKKLLKLLKKLWKWAG [Peptide 2j, Ac-LKKLLKLLKKLWKWAG, 21] under IRES (hairpin RNA) had Kd of 0.85

Entry WKKLLKLLKKLWKLAG [Peptide 2d, Ac-WKKLLKLLKKLWKLAG, 15] under IRES (hairpin RNA) had Kd of 0.77

Entry WKKLLKWLKKLLKLAG [Peptide 2b, Ac-WKKLLKWLKKLLKLAG, 13] under IRES (hairpin RNA) had Kd of 1

Entry LKKLLKWLKKLLKWAG [Peptide 2g, Ac-LKKLLKWLKKLLKWAG, 18] under IRES (hairpin RNA) had Kd of 1.3

Entry LKKLLKLLKKWLKWAG [Peptide 2i, Ac-LKKLLKLLKKWLKWAG, 20] under IRES (hairpin RNA) had Kd of 1.2

###

Provide the reported Kd of each item.
- assay.target: pre-let7a-1
- assay: Dissociation constant by competitive fluorescence anisotropy with rhodamine-rev peptide probe
- Type: binding
- test.settings: Table 3, first generation peptides, 20° C., HEPES pH 7.5; read-out: Kd value with pre-let7a-1
- Experimental: The binding affinity between the peptide synthesized in <Example 1> and pre-miRNA from <Example 2> were measured by fluorescence anisotropy using competitive binding method. A rev peptide with rhodamine attached at the N-terminal was used as a fluorescent probe and LS-55 luminescence spectrometer from Perkin-Elmer was use for analysis. […] The dissociation constant was determined according to the Mathematical Formula 1 and using Kaledia graph. […]
Write the number in pM without appending the unit.

Entry LKKLWKLLKKLLKLAG [Peptide 1c, Ac-LKKLWKLLKKLLKLAG] under pre-let7a-1 had Kd of 410

Entry LKKLLKLLKKWLKLAG [Peptide 1f, Ac-LKKLLKLLKKWLKLAG] under pre-let7a-1 had Kd of 320

Entry WKKLLKLLKKLLKLAG [Peptide 1a, Ac-WKKLLKLLKKLLKLAG] under pre-let7a-1 had Kd of 170

Entry LKKLLKLLKKLLKLAG [Peptide 1, Ac-LKKLLKLLKKLLKLAG] under pre-let7a-1 had Kd of 17000

Entry LKKLLKLWKKLLKLAG [Peptide 1e, Ac-LKKLLKLWKKLLKLAG] under pre-let7a-1 had Kd of 20000

Entry LKKLLKLLKKLLKWAG [Peptide 1h, Ac-LKKLLKLLKKLLKWAG] under pre-let7a-1 had Kd of 110

Entry LKKWLKLLKKLLKLAG [Peptide 1b, Ac-LKKWLKLLKKLLKLAG] under pre-let7a-1 had Kd of 680

Entry LKKLLKLLKKLWKLAG [Peptide 1g, Ac-LKKLLKLLKKLWKLAG] under pre-let7a-1 had Kd of 250

Entry LKKLLKWLKKLLKLAG [Peptide 1d, Ac-LKKLLKWLKKLLKLAG] under pre-let7a-1 had Kd of 640
